Field pIC50: reported value for 3-hydroxy-3-methylglutaryl-coenzyme A reductase (Rattus norvegicus, UniProt P51639); entries drawn from several documents.
Conceptually, pIC50 converts a concentration in mol/L into minus its log10.

// assay 3-hydroxy-3-methylglutaryl-coenzyme A reductase (Rattus norvegicus, UniProt P51639), entry CCC(C)C(=O)OC1CCC(=NOCc2ccc(F)cc2)C2=CC(=O)C(C)C(CCC(O)CC(O)CC(=O)O)C21 (centres unmarked) , pIC50 value = 7.58

For CC1CC(OC(=O)[C@@H]2CCC(=O)N2)CC(C)(C)C1 (single isomer, unassigned) on 3-hydroxy-3-methylglutaryl-coenzyme A reductase (Rattus norvegicus, UniProt P51639), measured pIC50 was 7.00

The value of pIC50 recorded for COC(=O)C[C@H](O)C[C@H](O)/C=C/c1c(-c2ccc(F)cc2)c(C)n(-c2ccccc2)c1C (relative stereo) when tested on 3-hydroxy-3-methylglutaryl-coenzyme A reductase (Rattus norvegicus, UniProt P51639) reads 6.49

Item COC(=O)C[C@H](O)C[C@H](O)CCc1c(-c2ccc(F)cc2)cn(-c2ccccc2)c1C(C)C (racemic) ; assay system 3-hydroxy-3-methylglutaryl-coenzyme A reductase (Rattus norvegicus, UniProt P51639); pIC50 reported as 7.82

Short answer on 3-hydroxy-3-methylglutaryl-coenzyme A reductase (Rattus norvegicus, UniProt P51639) for CC(=O)c1ccc(OC(C)(C)C(=O)O[C@H]2C[C@@H](C)CC(C)(C)C2)cc1 (relative stereo) , pIC50: 7.34
